Let's go through some pIC50 measurements on Protein kinase C gamma type (Homo sapiens, UniProt P05129) together.
Notebook: values listed as pIC50 are -log10 of the concentration (mol/L).

CN1CCN(c2nc(C3=C(c4c[nH]c5ccccc45)C(=O)NC3=O)c3ccccc3n2)CC1 = 7.19

Give recorded pIC50 with Protein kinase C gamma type (Homo sapiens, UniProt P05129) for the following molecule: `CC1(N)CCN(c2cccnc2NC(=O)c2nc(-c3ncccc3C(F)(F)F)cnc2N)CC1`
6.96

---

# ASSAY_NAME: Oral bioavailability in rat at 3 mg/kg measured upto 24 hrs by LC-MS/MS analysis
# Assay type: ADME, organism-based
# CONDITION_DETAILS: in vivo
MEASURE: bioavailability
Show the value, then the unit it is measured in.

For CC1(N)CCN(c2cccnc2NC(=O)c2nc(-c3ncccc3C(F)(F)F)cnc2N)CC1 [DAROVASERTIB] , what is its reported bioavailability?
55%
